- assayed.system: CYP2D6 (Homo sapiens)
- Construct: incubated with human liver microsomes; tissue Eurofins ITEMG232; host or cells: human liver microsomes
- Sequence (P10635 whole entry): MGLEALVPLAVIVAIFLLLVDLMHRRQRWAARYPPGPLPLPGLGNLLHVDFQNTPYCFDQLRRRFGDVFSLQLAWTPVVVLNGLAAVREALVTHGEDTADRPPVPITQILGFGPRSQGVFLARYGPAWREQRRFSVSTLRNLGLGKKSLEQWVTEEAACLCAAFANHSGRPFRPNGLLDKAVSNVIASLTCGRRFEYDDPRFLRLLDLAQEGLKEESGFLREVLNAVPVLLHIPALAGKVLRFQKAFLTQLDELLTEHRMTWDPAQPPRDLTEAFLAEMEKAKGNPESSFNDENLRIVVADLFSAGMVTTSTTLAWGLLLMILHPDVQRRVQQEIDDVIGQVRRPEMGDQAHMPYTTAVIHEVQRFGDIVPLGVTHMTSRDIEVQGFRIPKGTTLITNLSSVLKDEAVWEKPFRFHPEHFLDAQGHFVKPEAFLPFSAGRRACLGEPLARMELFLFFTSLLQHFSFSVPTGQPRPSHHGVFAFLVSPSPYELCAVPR
- experimental.details: CYP inhibition in human liver microsomes, CYP2D6
- Assay type: in vitro ADME
- settings: probe dextromethorphan, substrate dextromethorphan, read-out: CYP2D6 Inh %
measurement.name: inhibition at 10 µM (%)

Known inhibition at 10 µM results, listed for orientation:
> print(dat)
                                   molecule     measurement.name  recorded.value
1  Cc1nccn1Cc1ccc(-c2cc(CC(C)C)sc2S(=O)(=O)NC(=O)NCCC(F)(F)F)cc1 [Example 3]  inhibition at 10 µM             5.5
2  Cc1nccn1Cc1ccc(-c2cc(CC(C)C)sc2S(=O)(=O)NC(=O)NCCCC(F)(F)F)cc1F [Example 18]  inhibition at 10 µM              20
3  Cc1nccn1Cc1ccc(-c2cc(CC(C)C)sc2S(=O)(=O)NC(=O)NCc2cccs2)cc1F.O=C(O)C(F)(F)F [Example 35, trifluoroacetic acid]  inhibition at 10 µM              45
4  CC(C)Cc1cc(-c2ccc(Cn3ccnc3C(C)C)c(F)c2)c(S(=O)(=O)NC(=O)NCCC(F)(F)F)s1.O=C(O)C(F)(F)F [Example 41, trifluoroacetic acid]  inhibition at 10 µM              12
5  Cc1cn(Cc2ccc(-c3cc(CC(C)C)sc3S(=O)(=O)NC(=O)NCCC(F)(F)F)cc2)c(C)n1 [Example 8]  inhibition at 10 µM               0
6  Cc1nccn1Cc1ccc(-c2cc(CC(C)C)sc2S(=O)(=O)NC(=O)NCc2ccccn2)cc1 [Example 2]  inhibition at 10 µM             8.6
7  Cc1nccn1Cc1ccc(-c2cc(CC(C)C)sc2S(=O)(=O)NC(=O)NCCCC(F)(F)F)cc1 [Example 5]  inhibition at 10 µM            13.2
8  Cc1nccn1Cc1ccc(-c2cc(CC(C)C)sc2S(=O)(=O)NC(=O)NC(C)c2ccccn2)cc1F (centres unmarked) [Example 25]  inhibition at 10 µM              16

P = CCc1nccn1Cc1ccc(-c2cc(CC(C)C)sc2S(=O)(=O)NC(=O)NCCC(F)(F)F)cc1F.O=C(O)C(F)(F)F [Example 30, trifluoroacetic acid]
Q = Cc1nccn1Cc1ccc(-c2cc(CC(C)C)sc2S(=O)(=O)NC(=O)NCCc2c[nH]cn2)cc1F [Example 16]
R = Cc1nccn1Cc1ccc(-c2cc(CC(C)C)sc2S(=O)(=O)NC(=O)NCc2cc(Cl)ccn2)cc1F.O=C(O)C(F)(F)F [Example 38, trifluoroacetic acid]
Prompt: Ordering criterion: inhibition at 10 µM; begin with the maximum. Would you mind listing the labels in the order requested?
Completion: Q, R, P
(Q: 88%, R: 19%, P: 12%)
